Every entry's value here was drawn from patent US10047036B2.

Could you please report measured Activity GBE1wt for the items listed next?
molecular target: Glycogen Branching Enzyme 1 (GBE1) wild type (Homo sapiens); assay: activity of purified enzyme GBE1 in the presence of PC membranes; type: biochemical; details: PC membranes with TGM 20 mol %; non-mutated enzyme = 100% (0.76 nmol/min · ng protein)
Sequence (Q04446 whole entry): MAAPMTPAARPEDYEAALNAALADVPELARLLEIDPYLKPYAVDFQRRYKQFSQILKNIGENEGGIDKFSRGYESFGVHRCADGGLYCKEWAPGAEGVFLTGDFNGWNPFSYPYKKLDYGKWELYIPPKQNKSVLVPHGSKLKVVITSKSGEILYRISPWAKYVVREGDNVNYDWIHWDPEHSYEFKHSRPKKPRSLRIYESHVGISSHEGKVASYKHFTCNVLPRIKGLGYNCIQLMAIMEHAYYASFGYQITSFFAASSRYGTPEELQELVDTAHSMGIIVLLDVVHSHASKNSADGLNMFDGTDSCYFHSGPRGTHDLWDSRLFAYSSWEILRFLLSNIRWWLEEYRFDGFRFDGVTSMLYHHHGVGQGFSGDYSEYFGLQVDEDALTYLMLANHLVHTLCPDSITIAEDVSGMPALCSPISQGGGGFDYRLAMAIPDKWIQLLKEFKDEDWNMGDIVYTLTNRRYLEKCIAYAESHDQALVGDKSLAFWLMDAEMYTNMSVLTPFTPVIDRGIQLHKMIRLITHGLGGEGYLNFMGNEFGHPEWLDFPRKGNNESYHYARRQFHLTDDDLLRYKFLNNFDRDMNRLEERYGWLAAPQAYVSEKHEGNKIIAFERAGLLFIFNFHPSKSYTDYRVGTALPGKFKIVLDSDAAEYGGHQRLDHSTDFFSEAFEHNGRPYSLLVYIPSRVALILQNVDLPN
Form field: result (number plus unit)

Record excerpt, results attached:
>>> result("CCCCCC=CCC=CCCCCCCC(O)C(=O)OCC(COC(=O)C(O)CCCCCCC=CCC=CCCCCC)OC(=O)C(O)CCCCCCC=CCC=CCCCCC (centres unmarked) [TGM2]")
"72 ± 5%"
>>> result("CCCCCC=CCC=CCC=CCC=CCCC(O)C(=O)OCC(COC(=O)C(O)CCC=CCC=CCC=CCC=CCCCCC)OC(=O)C(O)CCC=CCC=CCC=CCC=CCCCCC (centres unmarked) [TGM4]")
"31 ± 4%"
>>> result("CCC=CCC=CCC=CCC=CCC=CCC=CCC(O)C(=O)OCC(COC(=O)C(O)CC=CCC=CCC=CCC=CCC=CCC=CCC)OC(=O)C(O)CC=CCC=CCC=CCC=CCC=CCC=CCC (centres unmarked) [TGM6]")
"33 ± 3%"

Okay, here is my list. What is Activity GBE1wt for each of these?
1. CCCCCC(O)C(=O)OCC(COC(=O)C(O)CCCCC)OC(=O)C(O)CCCCC (centres unmarked) [TGM0, 1,2,3-tri(2′-hydroxyheptanoyl)glycerol]
2. CCC=CCC=CCC=CCC=CCC=CCCC(O)C(=O)OCC(COC(=O)C(O)CCC=CCC=CCC=CCC=CCC=CCC)OC(=O)C(O)CCC=CCC=CCC=CCC=CCC=CCC (centres unmarked) [TGM5]

95 ± 12%
24 ± 2%
